target: UniProt:Q9HBH9; assay: biochemical; conditions: read-out: inhibition of MNK2
Sequence (Q9HBH9 whole entry): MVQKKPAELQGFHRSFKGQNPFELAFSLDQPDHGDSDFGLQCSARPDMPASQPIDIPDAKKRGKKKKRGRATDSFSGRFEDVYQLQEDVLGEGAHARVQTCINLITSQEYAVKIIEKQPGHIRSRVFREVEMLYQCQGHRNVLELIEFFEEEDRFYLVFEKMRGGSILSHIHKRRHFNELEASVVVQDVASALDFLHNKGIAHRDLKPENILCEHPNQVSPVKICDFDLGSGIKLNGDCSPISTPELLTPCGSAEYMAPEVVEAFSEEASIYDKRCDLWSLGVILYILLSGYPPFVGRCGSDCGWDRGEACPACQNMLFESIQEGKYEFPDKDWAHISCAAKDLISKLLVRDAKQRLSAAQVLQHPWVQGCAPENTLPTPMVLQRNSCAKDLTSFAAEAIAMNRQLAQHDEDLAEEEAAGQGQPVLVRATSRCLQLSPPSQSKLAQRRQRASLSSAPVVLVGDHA
Field: inhibition at 0.123 µM. Provide a value for each of the compounds that follow.

Input line: Report its inhibition at 0.123 µM with UniProt:Q9HBH9 as the test system: Cc1ccc(C(=O)Nc2ccc(CN3CCN(C)CC3)c(C(F)(F)F)c2)cc1C#Cc1cnc2cccnn12 [ponatinib, reference compound]
Output line: 32%

Input line: Report its inhibition at 0.123 µM with UniProt:Q9HBH9 as the test system: CN1CCN(Cc2ccc(NC(=O)c3cncc(C#Cc4cnc5cccnn45)c3)cc2C(F)(F)F)CC1
Output line: 85%

Input line: Report its inhibition at 0.123 µM with UniProt:Q9HBH9 as the test system: CN1CCN(Cc2ccc(NC(=O)c3cncc(C#Cc4cnc5ccccn45)c3)cc2C(F)(F)F)CC1
Output line: 84%

Input line: Report its inhibition at 0.123 µM with UniProt:Q9HBH9 as the test system: CN1CCN(Cc2ccc(NC(=O)c3cncc(C#Cc4cnc5cnccn45)c3)cc2C(F)(F)F)CC1
Output line: 72%
